Assayed target: human recombinant adenosine A3 receptors (Homo sapiens)
Construct: host or cells: CHO-K1 (Chinese hamster ovary K1 cells)
Sequence (P0DMS8 1-318): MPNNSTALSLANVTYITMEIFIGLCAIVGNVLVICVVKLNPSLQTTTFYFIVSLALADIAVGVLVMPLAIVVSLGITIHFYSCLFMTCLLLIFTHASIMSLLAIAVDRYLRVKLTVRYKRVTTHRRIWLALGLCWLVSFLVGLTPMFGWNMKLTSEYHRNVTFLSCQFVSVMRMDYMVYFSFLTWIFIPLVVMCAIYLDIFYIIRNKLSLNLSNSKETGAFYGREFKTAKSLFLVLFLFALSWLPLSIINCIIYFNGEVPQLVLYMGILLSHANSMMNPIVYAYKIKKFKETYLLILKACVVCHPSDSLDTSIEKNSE
Test description: Test for affinity for adenosine A3 receptor ([125I]AB-MECA binding to CHO-K1 cell membranes)
Measurement context: 3 μM trehalose compound, 0.5 nM [125I]AB-MECA, 60 min, 25° C.
Property: Affinity 3 μM

1. CCCCCC[C@@H](O)[C@@H](CCCCC)C(=O)OC[C@H]1O[C@H](O[C@H]2O[C@H](COC(=O)[C@@H](CCCCC)[C@@H](O)CCCCCC)[C@@H](O)[C@H](O)[C@H]2O)[C@H](O)[C@@H](O)[C@@H]1O | 54
2. CCCCCCCC(CCCCC)C(=O)NCC1OC(OC2OC(CNC(=O)C(CCCCC)CCCCCCC)C(O)C(O)C2O)C(O)C(O)C1O (stereo not shown) | 33
3. CCCCCC[C@@H](O)[C@@H](CCCCC)C(=O)OC[C@H]1O[C@H](O[C@H]2O[C@H](COC(=O)[C@H](CCCCC)[C@H](O)CCCCCC)[C@@H](O)[C@H](O)[C@H]2O)[C@H](O)[C@@H](O)[C@@H]1O | 56
4. CCCCCCC(OC)C(CCCCC)C(=O)NCC1OC(OC2OC(CNC(=O)C(CCCCC)C(CCCCCC)OC)C(O)C(O)C2O)C(O)C(O)C1O (stereo not shown) | 57
5. CCCCCCC(OC)C(CCCCC)C(=O)OCC1OC(OC2OC(COC(=O)C(CCCCC)C(CCCCCC)OC)C(O)C(O)C2O)C(O)C(O)C1O (stereo not shown) | 84
6. CCCCCC[C@H](O)[C@H](CCCCC)C(=O)OC[C@H]1O[C@H](O[C@H]2O[C@H](COC(=O)[C@@H](CCCCC)[C@@H](O)CCCCCC)[C@@H](O)[C@H](O)[C@H]2O)[C@H](O)[C@@H](O)[C@@H]1O | 57

[P] CCCCCCC(CCCCCC)C(=O)OCC1OC(OC2OC(COC(=O)C(CCCCCC)CCCCCC)C(O)C(O)C2O)C(O)C(O)C1O (stereo not shown)
[Q] CCCCCCC(CCCCCC)C(=O)NCC1OC(OC2OC(CNC(=O)C(CCCCCC)CCCCCC)C(O)C(O)C2O)C(O)C(O)C1O (stereo not shown)
[R] CCCCCC[C@@H](O)[C@H](CCCCC)C(=O)OC[C@H]1O[C@H](O[C@H]2O[C@H](COC(=O)[C@@H](CCCCC)[C@H](O)CCCCCC)[C@@H](O)[C@H](O)[C@H]2O)[C@H](O)[C@@H](O)[C@@H]1O
Problem: Put the molecules in ascending order of Affinity 3 μM. Reply format: the labels, ordered as requested.
Result: Q, R, P
(Q: 22, R: 32, P: 65)

---

Assayed target: human recombinant adenosine A3 receptors (Homo sapiens)
Construct: host or cells: CHO-K1 (Chinese hamster ovary K1 cells)
Test description: Test for affinity for adenosine A3 receptor ([125I]AB-MECA binding to CHO-K1 cell membranes)
Measurement context: 10 μM trehalose compound, 0.5 nM [125I]AB-MECA, 60 min, 25° C.
Property: Affinity 10 μM

[I] CCCCCCC(OC)C(CCCCC)C(=O)NCC1OC(OC2OC(CNC(=O)C(CCCCC)C(CCCCCC)OC)C(O)C(O)C2O)C(O)C(O)C1O (centres unmarked) [Production Example F-16]
[II] CCCCCCC(CCCCCC)C(=O)OCC1OC(OC2OC(COC(=O)C(CCCCCC)CCCCCC)C(O)C(O)C2O)C(O)C(O)C1O (centres unmarked) [Production Example F-10]
Problem: # compare Affinity 10 μM for I vs II ; return the one with the smaller value Select an item and report its label.
Result: II

---

Assayed target: human recombinant adenosine A3 receptors (Homo sapiens, UniProt P0DMS8)
Construct: host or cells: CHO-K1 (Chinese hamster ovary K1 cells)
Test description: Test for affinity for adenosine A3 receptor ([125I]AB-MECA binding to CHO-K1 cell membranes)
Measurement context: 10 μM trehalose compound, 0.5 nM [125I]AB-MECA, 60 min, 25° C.
Property: Affinity 10 μM

1) CCCCCCCC(CCCCC)C(=O)NCC1OC(OC2OC(CNC(=O)C(CCCCC)CCCCCCC)C(O)C(O)C2O)C(O)C(O)C1O (centres unmarked) | 89
2) CCCCCC(CCCCC)C(=O)OC[C@H]1O[C@H](O[C@H]2O[C@H](COC(=O)C(CCCCC)CCCCC)[C@@H](O)[C@H](O)[C@H]2O)[C@H](O)[C@@H](O)[C@@H]1O | 99
3) CCCCCC[C@H](O)[C@H](CCCCC)C(=O)OC[C@H]1O[C@H](O[C@H]2O[C@H](COC(=O)[C@@H](CCCCC)[C@@H](O)CCCCCC)[C@@H](O)[C@H](O)[C@H]2O)[C@H](O)[C@@H](O)[C@@H]1O | 86

[a] CCCCCC[C@@H](O)[C@@H](CCCCC)C(=O)OC[C@H]1O[C@H](O[C@H]2O[C@H](COC(=O)[C@@H](CCCCC)[C@@H](O)CCCCCC)[C@@H](O)[C@H](O)[C@H]2O)[C@H](O)[C@@H](O)[C@@H]1O
[b] CCCCCCCC(CCCCC)C(=O)OC[C@H]1O[C@H](O[C@H]2O[C@H](COC(=O)C(CCCCC)CCCCCCC)[C@@H](O)[C@H](O)[C@H]2O)[C@H](O)[C@@H](O)[C@@H]1O (some centres unmarked)
Problem: # compare Affinity 10 μM for a vs b ; return the one with the smaller value Select an item and report its label.
Result: b
(b: 62, a: 97)

---

Assayed target: human recombinant adenosine A3 receptors (Homo sapiens, UniProt P0DMS8)
Construct: host or cells: CHO-K1 (Chinese hamster ovary K1 cells)
Sequence (P0DMS8 1-318): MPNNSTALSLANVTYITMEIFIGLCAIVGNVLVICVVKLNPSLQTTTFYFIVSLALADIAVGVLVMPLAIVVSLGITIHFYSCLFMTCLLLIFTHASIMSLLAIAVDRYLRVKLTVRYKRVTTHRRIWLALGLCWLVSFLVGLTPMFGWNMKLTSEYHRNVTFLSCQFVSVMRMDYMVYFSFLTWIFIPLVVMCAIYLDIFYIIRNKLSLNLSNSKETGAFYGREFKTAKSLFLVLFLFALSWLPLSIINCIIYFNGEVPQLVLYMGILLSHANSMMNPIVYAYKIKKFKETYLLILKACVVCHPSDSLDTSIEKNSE
Test description: Test for affinity for adenosine A3 receptor ([125I]AB-MECA binding to CHO-K1 cell membranes)
Measurement context: 10 μM trehalose compound, 0.5 nM [125I]AB-MECA, 60 min, 25° C.
Property: Affinity 10 μM

1) CCCCCCC(OC)C(CCCCC)C(=O)OCC1OC(OC2OC(COC(=O)C(CCCCC)C(CCCCCC)OC)C(O)C(O)C2O)C(O)C(O)C1O (stereo not shown) [Production Example F-7] | 96
2) CCCCCC[C@@H](O)[C@@H](CCCCC)C(=O)OC[C@H]1O[C@H](O[C@H]2O[C@H](COC(=O)[C@H](CCCCC)[C@H](O)CCCCCC)[C@@H](O)[C@H](O)[C@H]2O)[C@H](O)[C@@H](O)[C@@H]1O [Production Example F-1] | 97
3) CCCCCC[C@H](O)[C@@H](CCCCC)C(=O)OC[C@H]1O[C@H](O[C@H]2O[C@H](COC(=O)[C@H](CCCCC)[C@@H](O)CCCCCC)[C@@H](O)[C@H](O)[C@H]2O)[C@H](O)[C@@H](O)[C@@H]1O [Production Example F-3] | 100
4) CCCCCCC[C@@H](O)[C@@H](CCCCCC)C(=O)OC[C@H]1O[C@H](O[C@H]2O[C@H](COC(=O)[C@@H](CCCCCC)[C@@H](O)CCCCCCC)[C@@H](O)[C@H](O)[C@H]2O)[C@H](O)[C@@H](O)[C@@H]1O [Production Example F-14] | 77

---

Assayed target: human recombinant adenosine A3 receptors (Homo sapiens, UniProt P0DMS8)
Construct: host or cells: CHO-K1 (Chinese hamster ovary K1 cells)
Sequence (P0DMS8 1-318): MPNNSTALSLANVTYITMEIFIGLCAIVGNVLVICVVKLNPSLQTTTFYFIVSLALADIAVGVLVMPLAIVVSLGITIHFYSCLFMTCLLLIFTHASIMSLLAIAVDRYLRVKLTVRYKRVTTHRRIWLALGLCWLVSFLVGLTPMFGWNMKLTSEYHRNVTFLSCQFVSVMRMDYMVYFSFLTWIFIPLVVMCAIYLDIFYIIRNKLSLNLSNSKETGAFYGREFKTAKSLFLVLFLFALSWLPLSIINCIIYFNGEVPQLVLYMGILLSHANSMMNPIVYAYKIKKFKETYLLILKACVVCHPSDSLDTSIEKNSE
Test description: Test for affinity for adenosine A3 receptor ([125I]AB-MECA binding to CHO-K1 cell membranes)
Measurement context: 10 μM trehalose compound, 0.5 nM [125I]AB-MECA, 60 min, 25° C.
Property: Affinity 10 μM

[P] CCCCC[C@@H](O)[C@@H](CCCC)C(=O)OC[C@H]1O[C@H](O[C@H]2O[C@H](COC(=O)[C@@H](CCCC)[C@@H](O)CCCCC)[C@@H](O)[C@H](O)[C@H]2O)[C@H](O)[C@@H](O)[C@@H]1O
[Q] CCCCCCCCC(O)C(CCCCCCC)C(=O)OCC1O[C@H](O[C@@H]2OC(COC(=O)C(CCCCCCC)C(O)CCCCCCCC)[C@@H](O)C(O)C2O)C(O)C(O)[C@@H]1O (some centres unmarked) [Comparative Example, reference compound]
Problem: Which numeric Affinity 10 μM is bigger, that of P or that of Q ? Select an item and report its label.
Result: P
